- tested-on: human AXL expressed on the cell surface of tumor cell lines (human) (UniProt P30530)
- Sequence (P30530 26-894): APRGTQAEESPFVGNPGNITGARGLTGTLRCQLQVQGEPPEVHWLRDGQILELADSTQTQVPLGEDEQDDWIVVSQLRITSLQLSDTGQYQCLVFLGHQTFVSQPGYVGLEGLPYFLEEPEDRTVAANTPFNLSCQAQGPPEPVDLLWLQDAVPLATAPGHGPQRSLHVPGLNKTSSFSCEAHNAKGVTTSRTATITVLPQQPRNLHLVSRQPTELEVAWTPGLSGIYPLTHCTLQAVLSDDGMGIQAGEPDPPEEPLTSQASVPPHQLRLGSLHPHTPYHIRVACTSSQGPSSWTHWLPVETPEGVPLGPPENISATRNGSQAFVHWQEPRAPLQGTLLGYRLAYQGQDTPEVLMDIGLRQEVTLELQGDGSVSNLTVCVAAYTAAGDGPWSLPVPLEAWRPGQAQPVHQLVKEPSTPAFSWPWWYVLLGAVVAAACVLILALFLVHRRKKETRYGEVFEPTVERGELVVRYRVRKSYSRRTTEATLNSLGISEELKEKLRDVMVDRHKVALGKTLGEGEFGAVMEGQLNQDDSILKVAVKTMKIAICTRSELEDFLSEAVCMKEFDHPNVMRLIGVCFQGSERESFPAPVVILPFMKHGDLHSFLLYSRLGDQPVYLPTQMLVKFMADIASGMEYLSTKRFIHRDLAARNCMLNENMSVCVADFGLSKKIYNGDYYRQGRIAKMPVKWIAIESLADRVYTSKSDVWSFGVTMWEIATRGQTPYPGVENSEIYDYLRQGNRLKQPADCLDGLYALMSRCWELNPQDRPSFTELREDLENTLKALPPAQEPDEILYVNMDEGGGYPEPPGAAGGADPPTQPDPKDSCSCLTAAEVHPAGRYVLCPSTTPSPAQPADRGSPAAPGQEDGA
- assay-remarks: cell-based or functional assay
quantity: IC50 of growth inhibition (CellTiterGlo, 5 days) of NCI-H292 cells, -Gas6 (nM)
Just the number please, in nM, no unit attached.

hFc-sdAb008-DM1 (Fc fusion, not shown: a dimerising Fc or GST, DM1 conjugate (SMCC linker); sites not given) QVKLEESGGGLVQAGGSLRLSCAASGSSGMINTMGWYRQAPGKQRELVARRSTGGTTNYADSVKGRFTISRDDANNTVYLQMNSLKPEDTAVYYCAIIWRTSDLTGRFNTWGQGTQVTVSS : 0.034

GET /value?item= hFc-sdAb005-DM1 (Fc fusion, not shown: a dimerising Fc or GST, DM1 conjugate (SMCC linker); sites not given) QVKLEESGGGLAQAGGSLRLSCAASGSISSINTIGWFRQAPGKQRELVAASDSGANRNYADSVKGRFTISRDNAKNTVYLQMNNLKPEDTAIYYCRAWGTGTISTMYWGQGTQVTVSS &field=IC50 of growth inhibition (CellTiterGlo, 5 days) of NCI-H292 cells, -Gas6 returns 6.66

For hFc-sdAb001-DM1 (Fc fusion, not shown: a dimerising Fc or GST, DM1 conjugate (SMCC linker); sites not given) QVKLEESGGGLVQAGGSLRLSCTASASISSFDIMGWYRQAPGKQRELVAAITTLDIANYRDSVKGRFTISRDNAKNTVYLQMDSLKPEDTARYHCAAFQSDQNYWGQGTQVTVSS the binder record lists IC50 of growth inhibition (CellTiterGlo, 5 days) of NCI-H292 cells, -Gas6 as 0.887

Entry under test: hFc-sdAb006-DM1 (Fc fusion, not shown: a dimerising Fc or GST, DM1 conjugate (SMCC linker); sites not given) QVKLEESGGGLVQAGASLRLSCVASESIFGFNTMGWYRQAPGNERELVASISNSKRTMYADSVKGRFTISRDNAKNTVNLQMNNLKPEDTAVYYCRAWGIITSATVYWGQGTQVTVSS . Its IC50 of growth inhibition (CellTiterGlo, 5 days) of NCI-H292 cells, -Gas6 was 2.71
